System: HEp-2
Procedure Text: Minimum toxic effect against HEp-2 cells.
Type: functional, Homo sapiens
Assay Metric: MTC (µg/mL)
Write the value in µg/mL as a bare number.

Sample records with MTC:
>>> measured_number("O=c1[nH]c(=O)n([C@H]2C[C@H](O)[C@@H](CO)O2)cc1CCI")
330
>>> measured_number("O=C([O-])P(=O)([O-])[O-].[Na+].[Na+].[Na+] [FOSCARNET SODIUM]")
330
>>> measured_number("O=c1[nH]c(=O)n(C2CC(O)C(CCl)O2)cc1CCCl (centres undefined)")
330

[Q] What does the record list as MTC for O=c1[nH]c(=O)n([C@H]2C[C@H](O)[C@@H](CO)O2)cc1CCCCl ?
[A] 100

====

Overview of recorded MTC for various molecules
Test system: HEp-2
Procedure Text: Minimum toxic effect against HEp-2 cells.
Type: functional, Homo sapiens
Write the value in µg/mL as a bare number.

Sample records with MTC:
>>> measured_number("O=c1[nH]c(=O)n(C2CC(O)C(CBr)O2)cc1CCBr (stereo not given)")
330
>>> measured_number("O=c1[nH]c(=O)n(C2CC(O)C(CI)O2)cc1CCI (stereo not given)")
100
>>> measured_number("COC(=O)/C=C/c1cn([C@H]2C[C@H](O)[C@@H](CO)O2)c(=O)[nH]c1=O")
100
>>> measured_number("O=c1[nH]c(=O)n([C@H]2C[C@H](O)[C@@H](CO)O2)cc1CCO")
330

[Q] What does the record list as MTC for O=c1[nH]c(=O)n([C@@H]2C[C@H](O)[C@@H](CO)O2)cc1CCBr ?
[A] 330

====

Tested on: Human alphaherpesvirus 2
Procedure Text: Minimum inhibitory concentration against HSV-2.
Assay type: functional
Overview of recorded MIC for various compounds

>>> result("O=c1[nH]c(=O)n([C@@H]2C[C@H](O)[C@@H](CO)O2)cc1CCBr")
"> 100 µg/mL"
>>> result("O=c1[nH]c(=O)n([C@H]2C[C@H](O)[C@@H](CO)O2)cc1CCCO")
"> 100 µg/mL"

[Q] What does the record list as MIC for O=c1[nH]c(=O)n(C2CC(O)C(CCl)O2)cc1CCCCl (stereo not drawn) ?
[A] > 100 µg/mL

====

Tested on: Human alphaherpesvirus 2
Procedure Text: Minimum inhibitory concentration against HSV-2.
Format: functional
Assay Metric: MIC

>>> result("O=c1nc2c(cn1[C@H]1C[C@H](O)[C@@H](CO)O1)CCO2")
"> 100 µg/mL"
>>> result("O=c1[nH]c(=O)n(C2CC(O)C(CCl)O2)cc1CCCl (stereo not drawn)")
"> 100 µg/mL"

We next turn to a different molecule, shown below.
[Q] What does the record list as MIC for O=c1[nH]c(=O)n(C2CC(O)C(CI)O2)cc1CCI (stereo not drawn) ?
[A] > 100 µg/mL
